assay: physchem
experimental parameters: octan-1-ol/water, pH 7.4, LogD7.4
// boundary case: logD equal to 2 maps to criterion not met; strictly smaller maps to criterion met

Query: Given Cc1ccc(Cl)c(Nc2ccccc2C(=O)O)c1Cl , is recorded logD strictly lower than 2?
Reply: criterion not met

Query: Given COc1ccc(-c2ccc3c(N4CCOC[C@@H]4C)nc(N4CCOC[C@@H]4C)nc3n2)cc1C(N)=O , is recorded logD strictly lower than 2?
Reply: criterion not met

Query: Given Cc1nc2ccc(-c3ccc(Cl)cc3)cc2c(=O)n1C[C@H]1CCCN(C(C)C)C1 , is recorded logD strictly lower than 2?
Reply: criterion not met

Query: Given O=C(O)c1ccc2c(c1)nc(Nc1cccc(Cl)c1)c1ccncc12 , is recorded logD strictly lower than 2?
Reply: criterion met

Query: Given O=c1[nH]c([C@@H]2CCCN2)nc2c1oc1ccc(Br)cc12 , is recorded logD strictly lower than 2?
Reply: criterion not met

Query: Given CN[C@@H](C)C(=O)N[C@H]1CN(C(=O)CC(C)C)CC[C@H]2CC[C@@H](C(=O)NC(c3ccccc3)c3ccccc3)N2C1=O , is recorded logD strictly lower than 2?
Reply: criterion met

Query: Given O=C(O)C(c1ccccc1)N1CCO[C@@H](CN2CCC(Oc3ccc(Cl)c(Cl)c3)CC2)C1 (some centres undefined) , is recorded logD strictly lower than 2?
Reply: criterion met

Query: Given O=C(c1ccccc1)c1ccc2n1CCC2C(=O)O (centres undefined) , is recorded logD strictly lower than 2?
Reply: criterion met

Query: Given Cc1[nH]c(/C=C2\C(=O)Nc3ccc(F)cc32)c(C)c1C(=O)NCCN(C)C , is recorded logD strictly lower than 2?
Reply: criterion met
